Tested on: KHOS-240S
Test: relative viability vs DMSO control (72 h) (fraction); higher = more viable cells
Conditions: 0.00152 µM
One threshold, 1, splits the recorded relative viability values: lower ones are 1.0, equal or higher ones are 0.0.

Solved cases below.
O=C1CCc2c(Oc3ccc4c(c3)[C@@H]3[C@H](O4)[C@H]3c3nc4cc(C(F)(F)F)ccc4[nH]3)ccnc2N1 [Lifirafenib]: 0.0
O=S(=O)(c1cccc2c(O)nccc12)N1CCCNCC1 [Hydroxyfasudil]: 0.0
CN(C)C(=O)c1cc2cnc(Nc3ccc(N4CCNCC4)cn3)nc2n1C1CCCC1 [Ribociclib]: 0.0

Field: below-cutoff. Rule: recorded relative viability strictly less than 1. Subject: O=C(/C=C\n1cnc(-c2cc(C(F)(F)F)cc(C(F)(F)F)c2)n1)NNc1cnccn1 [Selinexor]
0.0

Item: CO[C@H]1C[C@@H]2CC[C@@H](C)[C@@](O)(O2)C(=O)C(=O)N2CCCC[C@H]2C(=O)O[C@H]([C@H](C)C[C@@H]2CC[C@@H](OC(=O)C(C)(CO)CO)[C@H](OC)C2)CC(=O)[C@H](C)/C=C(\C)[C@@H](O)[C@@H](OC)C(=O)[C@H](C)C[C@H](C)/C=C/C=C/C=C/1C [Temsirolimus]
1.0

Ref: the supplement of paper PMC10883282
